# key: entry, value: Kd
Assay system: T1, Mouse-Fc-tagged SARS-CoV2 S1-RBD (Sino Biologicals) recombinant protein (SARS-CoV-2, UniProt P0DTC2 319-541)
T1 construct: domain: S1-RBD
Test name: SPR, S1-RBD-mFc captured via anti-mouse-Fc antibody, 1:1 model
# number only, unit nM dropped from output

# example entries with known answers
Qu. Data request, read-out Kd, for P043.A.00023.A08 (protein sample ID 446) (antibody, V domains shown) VH: QSVEESGGRLVTPGTPLTLTCTVSGFSLSKYAMSWVRQAPGKGLEWIGIISSGGSTYYASWAKGRFTISKTSSTTVDLKITSPTTEDTATYFCARAGYPGYSPHYFNIWGPGTLVTVSL VL: AIQMTQSPSSLAASVGDTVTITCKASEDIGYELNWYQQKLGIAPKLLIYGANTLESGVPSRFTGSGSETDYTLTISSVQAEDAGIYYCQQGYSTPPTFGAGTKVEIK
Ans. 0.115

Qu. Entry P043.A.00017.E04 (antibody, V domains shown) VH: QSVEESGGRLVTPGTPLTLTCTVSGFSLNNYAMNWVRQAPGKGLEWIGIISSSGNTYYANWAKGRFTISKTSTTVDLKITSPTTEDTATYFCARDSYPGYSPYYGMDPWGPGTLVTVSS VL: AIQMTQSPSSLAASVGDTVTITCKASEDIAYGLNWYQQKLGITPKLLIYGANTLESGVPSRFSGSGSETHYTLTISSVQAEDAGIYYCQQGYNTPPTFGAGTKVEIK has what Kd?
Ans. 0.422

Qu. Please look up its Kd: P043.A.00047.H08 (protein sample ID 447) (antibody, V domains shown, also called antibody with the Protein sample ID 447) VH: QSLEESGGDLVKPGASLTLTCTASGFSFSSDGMCWVRQAPGKGLEWIACIAAGSSGSTYYATWAQGRFTISKSSSTTVTLQMTSLTAADTATYFCAGEDYTGNNYYALWGPGTLVTVSS VL: AIDMTQTPSPVSAVVGDTVTINCQASENIYSFLAWYQQKPGQPPKLLIYFASKLASGVPSRFKGSGSGTQFTLTISDVHSDDAAIYYCQQTGTYSDADNTFGGGTEVVVK
Ans. 0.228

Qu. Entry P043.A.00018.C02 (protein sample ID 450) (antibody, V domains shown) VH: QSVEESGGRLVTPGTPLTLTCTVSGFSLSSYAMSWVRQAPGKGLEWIGIINSGRSTYYASWAKGRFTISKTSTTVDLKITSPTTEDTATYFCARDATSIGYYRYYGMDPWGPGTLVTVSS VL: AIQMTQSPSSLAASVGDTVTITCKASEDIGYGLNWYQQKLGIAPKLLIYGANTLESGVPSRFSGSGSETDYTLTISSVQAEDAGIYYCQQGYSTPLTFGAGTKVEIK : reported Kd = ?
Ans. 0.398

Okay, next one:
Qu. Please look up its Kd: P043.A.00020.D06 (protein sample ID 444) (antibody, V domains shown) VH: QSVEESGGRLVTPGTPLTLTCTVSGFSLSSYAMNWVRQAPGKGLEWIGIISSSGSTYYASWAKGRFTISKTSTTVDLKITSPTTEDTATYFCARVGAGYAGYGYDNYYGMDPWGPGTLVTVSS VL: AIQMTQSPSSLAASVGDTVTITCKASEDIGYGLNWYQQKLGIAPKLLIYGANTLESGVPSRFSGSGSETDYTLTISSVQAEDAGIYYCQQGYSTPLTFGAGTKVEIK
Ans. 1.36
